assay: Evaluation of Metabolic Stability in Human Liver Microsomes; format: in vitro ADME; settings: HLM, run A, relative to clemizole
outcome-measure: percentage increase in half-life in going from clemizole to the test compound, run A

[[record]]
smiles_data = "[2H]C([2H])(c1nc2ccccc2n1Cc1ccc(Cl)cc1)N1CCCC1"
recorded_value = "(+18%)"

[[record]]
smiles_data = "[2H]C([2H])(c1nc2ccccc2n1C([2H])([2H])c1ccc(Cl)cc1)N1C([2H])([2H])C([2H])([2H])C([2H])([2H])C1([2H])[2H]"
recorded_value = "(+18%)"

[[record]]
smiles_data = "[2H]C([2H])(c1ccc(Cl)cc1)n1c(CN2CCCC2)nc2ccccc21"
recorded_value = "(+2%)"


* * *

assay: Evaluation of Metabolic Stability in Human Liver Microsomes; type: in vitro ADME; conditions: human, microsomes, pH 7.4, HLM, average of runs A-D; read-out: Ave t½
Readings of half-life for the listed molecules

Use the examples below as a reference point.
[[record]]
molecule = "Clc1ccc(Cn2c(CN3CCCC3)nc3ccccc32)cc1 [clemizole, reference compound]"
recorded_value = "13.3 min"

[[record]]
molecule = "[2H]C([2H])(c1nc2ccccc2n1Cc1ccc(Cl)cc1)N1CCCC1"
recorded_value = "14.9 min"

[[record]]
molecule = "[2H]C1([2H])CCC([2H])([2H])N1Cc1nc2ccccc2n1Cc1ccc(Cl)cc1"
recorded_value = "15.7 min"


INPUT: Recorded half-life for [2H]C([2H])(c1ccc(Cl)cc1)n1c(CN2CCCC2)nc2ccccc21 , please?
OUTPUT: 13.9 min

INPUT: // next record [2H]C([2H])(c1nc2ccccc2n1C([2H])([2H])c1ccc(Cl)cc1)N1C([2H])([2H])C([2H])([2H])C([2H])([2H])C1([2H])[2H]
OUTPUT: 17.2 min

INPUT: // next record [2H]C([2H])(c1ccc(Cl)cc1)n1c(CN2C([2H])([2H])C([2H])([2H])C([2H])([2H])C2([2H])[2H])nc2ccccc21
OUTPUT: 16.6 min

INPUT: // next record [2H]C([2H])(c1nc2ccccc2n1C([2H])([2H])c1ccc(Cl)cc1)N1CCCC1
OUTPUT: 14 min

INPUT: // next record [2H]C1([2H])N(Cc2nc3ccccc3n2Cc2ccc(Cl)cc2)C([2H])([2H])C([2H])([2H])C1([2H])[2H]
OUTPUT: 18.2 min
